Consider compounds characterized by their IC50 with GluN1/2C receptors (Rattus norvegicus, UniProt P35439+Q00961).
Sequence (Q00961 20-1237, other chains not shown): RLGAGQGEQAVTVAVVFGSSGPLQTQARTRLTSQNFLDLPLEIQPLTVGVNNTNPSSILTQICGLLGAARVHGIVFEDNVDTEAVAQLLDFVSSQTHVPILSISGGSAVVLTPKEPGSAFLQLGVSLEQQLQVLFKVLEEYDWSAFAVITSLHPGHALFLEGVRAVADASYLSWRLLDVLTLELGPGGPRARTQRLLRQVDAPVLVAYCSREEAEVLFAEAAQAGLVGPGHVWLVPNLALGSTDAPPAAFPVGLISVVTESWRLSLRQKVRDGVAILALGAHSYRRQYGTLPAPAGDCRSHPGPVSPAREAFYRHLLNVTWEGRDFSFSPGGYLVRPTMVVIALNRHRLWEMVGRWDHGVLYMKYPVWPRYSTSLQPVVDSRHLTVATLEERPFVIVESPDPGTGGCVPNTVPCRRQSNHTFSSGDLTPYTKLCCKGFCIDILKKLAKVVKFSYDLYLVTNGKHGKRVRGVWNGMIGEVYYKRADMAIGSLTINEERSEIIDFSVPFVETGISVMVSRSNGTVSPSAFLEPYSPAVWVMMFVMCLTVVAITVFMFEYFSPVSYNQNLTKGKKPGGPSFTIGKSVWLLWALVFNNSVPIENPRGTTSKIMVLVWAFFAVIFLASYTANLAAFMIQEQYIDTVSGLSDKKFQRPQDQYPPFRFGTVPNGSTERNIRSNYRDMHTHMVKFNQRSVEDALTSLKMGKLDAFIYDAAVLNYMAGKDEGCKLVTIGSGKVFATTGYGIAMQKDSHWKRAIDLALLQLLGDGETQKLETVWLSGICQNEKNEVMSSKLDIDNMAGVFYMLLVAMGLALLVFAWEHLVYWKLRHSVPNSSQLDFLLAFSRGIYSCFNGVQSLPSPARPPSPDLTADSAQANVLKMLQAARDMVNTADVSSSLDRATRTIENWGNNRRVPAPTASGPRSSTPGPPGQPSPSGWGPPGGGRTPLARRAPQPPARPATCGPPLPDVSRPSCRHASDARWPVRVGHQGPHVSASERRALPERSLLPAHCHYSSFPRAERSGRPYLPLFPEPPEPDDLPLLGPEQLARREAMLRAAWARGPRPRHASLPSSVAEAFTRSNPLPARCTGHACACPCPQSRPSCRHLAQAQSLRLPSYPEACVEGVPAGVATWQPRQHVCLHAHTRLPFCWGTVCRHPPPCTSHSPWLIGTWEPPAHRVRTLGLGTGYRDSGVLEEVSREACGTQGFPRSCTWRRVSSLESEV
Readout label: IC50 (nM)

N[C@H](C[C@H]1CC(C(=O)O)=NN1c1ccc(Br)cc1)C(=O)O : 190
N[C@H](C[C@H]1CC(C(=O)O)=NN1c1ccc(F)cc1)C(=O)O : 920
N[C@H](C[C@H]1CC(C(=O)O)=NN1c1ccc(Cl)cc1)C(=O)O : 180

P. Cc1ccc(N2N=C(C(=O)O)C[C@@H]2C[C@@H](N)C(=O)O)cc1
Q. N[C@H](C[C@H]1CC(C(=O)O)=NN1c1ccc(I)cc1)C(=O)O
Incoming: // compare measured IC50 between P and Q ; output the lower one Please respond with the label that marks your chosen entry.
Outgoing: P
